Recorded pIC50, one value per entry.
tested_on: GSK3b (GST-full length GSK3b) (Homo sapiens (Human))
Sequence (P49841 whole entry): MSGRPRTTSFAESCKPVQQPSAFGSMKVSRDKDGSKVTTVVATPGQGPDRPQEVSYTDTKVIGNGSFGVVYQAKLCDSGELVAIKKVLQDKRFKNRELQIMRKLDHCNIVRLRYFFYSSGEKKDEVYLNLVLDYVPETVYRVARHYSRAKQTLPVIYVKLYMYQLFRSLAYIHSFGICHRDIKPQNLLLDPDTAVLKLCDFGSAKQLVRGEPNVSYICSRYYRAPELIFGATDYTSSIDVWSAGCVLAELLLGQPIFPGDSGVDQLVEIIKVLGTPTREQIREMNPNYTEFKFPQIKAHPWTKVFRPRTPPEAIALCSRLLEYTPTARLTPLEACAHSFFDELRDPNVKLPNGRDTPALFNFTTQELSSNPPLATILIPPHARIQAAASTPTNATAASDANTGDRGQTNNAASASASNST
protocol_details: GSK3b TR-FRET kinase assay
Assay type: biochemical
condition_parameters: 1 nM GSK3b, 2 μM ATP, 30 minute preincubation, Table 16; read-out: GSK3-B TR-FRET BIOCHEMICAL (TR-FRET)
pIC50: −log10 of the molar value.

Some entries whose results are on file:
CC1(C)CC(=O)C2=C(Nc3n[nH]cc3[C@]23CC[C@@H](C(F)(F)F)CC3)[C@H]1F [Compound 918285] :: 6.00 to 7.00
Cc1ncc(S(=O)(=O)N2CCC3(CC2)C2=C(CC(C)(C)CC2=O)Nc2n[nH]cc23)o1 [Compound 947611] :: ≥ 7.00
CC1(C)CC(=O)C2=C(C1)Nc1n[nH]cc1[C@]21CCN(S(=O)(=O)c2cccc(F)c2)C1 [Compound 943488] :: ≥ 7.00
CN(C)C(=O)c1cccc(S(=O)(=O)N2CCC3(CC2)C2=C(CC(C)(C)CC2=O)Nc2n[nH]cc23)c1 [Compound 947247] :: ≥ 7.00
CC[C@]1(c2cccc(-c3cc(C)nn3C)c2)C2=C(Nc3n[nH]cc31)[C@H](F)C(C)(C)CC2=O [Compound 947656] :: < 5.30
CCC1(c2cccc(-c3ccnn3CCC(C)C)c2)C2=C(CC(C)(C)CC2=O)Nc2n[nH]cc21 (stereo not shown) [Compound 946095] :: ≥ 7.00

Next compound, pIC50 to be filled in.
Data request: Observed pIC50 on GSK3b (GST-full length GSK3b) (Homo sapiens (Human)) for CC1(C)CC(=O)C2=C(C1)Nc1n[nH]cc1[C@@]21CC[C@@H](C(F)(F)F)C1 [Compound 952436] , please.
Data returned: ≥ 7.00
